- assay explanation: gradient 5% acetonitrile 3 min, to 50% in 2 min, to 85% in 15 min, held 3 min, 100 µL/min
- run conditions: column: Zorbax Extend-C18 2.1 x 50 mm; eluents: water / acetonitrile, 0.1% formic acid

{"columns": ["compound", "RP-LC retention time"],
 "data": [
  ["CC1CCCCN1CCNC(=O)c1cc(=O)n2c(nc3ccccc32)s1 (stereo not given)", "626 s"],
  ["Cc1c(-c2noc(-c3ccc(N(C)C)cc3)n2)nnn1-c1ccc(F)cc1", "1040 s"],
  ["O=C(Nc1cc(-c2ccccn2)no1)C1CCCC1", "765 s"],
  ["COc1cc(NC(=O)NC2CCN(c3cc(C)cc(C)c3)C2=O)cc(OC)c1 (stereo not given)", "818 s"],
  ["CN(CC(=O)N1CCN(C2CCCC2)CC1)S(=O)(=O)c1ccc2c(c1)CCCC(=O)N2", "588 s"],
  ["Cn1ccc2c(cc(C(=O)NCc3ccc(N4CCOCC4)cc3)n2C)c1=O", "614 s"],
  ["Cn1c(=O)n(Cc2cccc(Cl)c2)c(=O)c2cnc(-c3ccncc3)nc21", "922 s"],
  ["CC(C)N1CCN(C(=O)c2sc3ncccc3c2-n2cccc2)CC1", "597 s"],
  ["CCc1ccc(N2CCn3c2nc2c3c(=O)n(CC(=O)O)c(=O)n2C)cc1", "785 s"],
  ["CCOC(=O)CNC(=O)NCc1cccn1Cc1ccccc1C", "737 s"],
  ["CCCN(C)C(=O)C1c2ccccc2CC(=O)N1Cc1ccccc1 (stereo not given)", "828 s"],
  ["COCc1nc(-c2ccc(OC3CCN(C(=O)c4n[nH]c5ccccc45)C3)cc2)no1 (stereo not given)", "835 s"],
  ["CC(=O)Nc1ccc(C2(C(=O)NCc3cccc(Cl)c3)CCC2)cc1", "785 s"],
  ["CC(O)(CNC(=O)c1cccc(C(F)(F)F)c1)c1ccccc1 (stereo not given)", "808 s"],
  ["COCc1nc2cccnc2n1C1CCN(C(=O)Nc2cc(OC)cc(OC)c2)CC1", "696 s"],
  ["O=S(=O)(c1cc(-c2nnc(-c3ccccc3)o2)ccc1F)N1CCOCC1", "888 s"],
  ["COC(c1ccccc1)(c1ccccc1)[C@H](Oc1nc(C)cc(C)n1)C(=O)O", "913 s"],
  ["Cn1nc(N2CCC(NC(=O)Cc3cccs3)C2)ccc1=O (stereo not given)", "627 s"],
  ["CCc1ccc(-c2cc(C(N)=O)[nH]n2)cc1", "708 s"],
  ["CCn1ccc(-c2nc(-c3ccc4c(c3)ncn4CCC(=O)N3CCCC3)no2)n1", "642 s"],
  ["Cc1cc(NC(=O)C2CCCN(c3ncnc4c3nc3n4CCCCC3)C2)no1 (stereo not given)", "751 s"],
  ["NC(=O)[C@@H]1C[C@H](Oc2cccnc2)CN1C(=O)CC1CCCC1", "584 s"],
  ["O=C(c1cccc(-n2cnnn2)c1)N1CCN(Cc2nc(-c3ccc(F)cc3)cs2)CC1", "666 s"],
  ["CC(=O)Nc1onc(C)c1-c1ccc(C)c(S(=O)(=O)NCc2ccc(Br)cc2)c1", "870 s"],
  ["Cc1oc(-c2ccc(NC(=O)COc3ccccc3)cc2)nc1Cn1cccn1", "887 s"],
  ["CCc1cccc(NS(=O)(=O)c2c[nH]c3ncccc23)c1", "762 s"],
  ["CCCN(C)CC1(O)CCC2(CCN(C(=O)C3CCCC3)CC2)CC1", "584 s"],
  ["Cc1cccc(-c2nc(Cn3nnc(C(=O)NCc4cccc(Br)c4)c3C)c(C)o2)c1", "1210 s"],
  ["COC(=O)c1ccc(NC(=O)CC(C)S(=O)(=O)c2ccc3c(c2)NC(=O)CCS3)cc1 (stereo not given)", "740 s"],
  ["CC(C)Sc1ccc(CC(=O)NCC2CCN(C(=O)NC(C)(C)C)CC2)cc1", "828 s"]
]}

* * *

- assay explanation: gradient 5% acetonitrile 3 min, to 50% in 2 min, to 85% in 15 min, held 3 min, 100 µL/min
- run conditions: column: Zorbax Extend-C18 2.1 x 50 mm; eluents: water / acetonitrile, 0.1% formic acid

{"columns": ["molecule", "RP-LC retention time"],
 "data": [
  ["CC1=NS(=O)(=O)N(C)C=C1C(=O)OCc1cc(F)cc(F)c1", "934 s"],
  ["CCn1nc(C)n2cc(S(=O)(=O)NCc3ccc(F)cc3F)cc2c1=O", "856 s"],
  ["CCCNC(=O)C1CCN(Cc2cc3ccccc3n2Cc2cccc(Cl)c2)CC1", "756 s"],
  ["CCOC(=O)C1=C(C)NC2=C(C(=O)CC(C)(C)C2)C1c1ccc([N+](=O)[O-])cc1 (configuration not stated)", "832 s"],
  ["Cn1c(=O)c(N2CCC(NC(=O)Nc3cccc(Br)c3)CC2)nc2ccccc21", "965 s"],
  ["CCN(CC)CCCn1c(C)cc2c(c1=O)C(c1ccc(Cl)cc1)C(C#N)=C(N)O2 (configuration not stated)", "658 s"],
  ["Cc1ccsc1C(=O)NCCn1c(=O)n(Cc2ccc(F)cc2)c2cccnc21", "824 s"]
]}

* * *

- assay explanation: gradient 5% acetonitrile 3 min, to 50% in 2 min, to 85% in 15 min, held 3 min, 100 µL/min
- run conditions: column: Zorbax Extend-C18 2.1 x 50 mm; eluents: water / acetonitrile, 0.1% formic acid
The entries below come with measured RP-LC retention time values attached.
quantity: RP-LC retention time (s)

{"columns": ["compound", "reading unit", "readout number"],
 "data": [
  ["Cc1ccc(Cn2cc(-c3ccncc3)cc2C(=O)NCC2CC2)cc1", "s", 705],
  ["O=C(NCCc1ccsc1)C(=O)Nc1cccc(N2CCCCC2=O)c1", "s", 719],
  ["Cc1ccccc1C(=O)NCCc1nc2cccnc2n1CC(C)C", "s", 717],
  ["CCN1CCN(C(=O)Cn2c3ccccc3c3cnn(C)c(=O)c32)CC1", "s", 580],
  ["O=C(Cc1ccccc1F)N1CCN(c2cc(-c3cccs3)[nH]n2)CC1", "s", 794],
  ["O=C(NCc1cccnc1)c1c2c(nc3ccccc13)C(=O)N(C1CCCCC1)C2", "s", 612],
  ["CCCNC(=O)CC1CCN(C(=O)c2[nH]c(C)c(C)c2C)CC1", "s", 698],
  ["CN1C(=O)c2cc(C(=O)Nc3ccccc3Br)nn2CC1(C)C(=O)NC1CCCCC1 (configuration not stated)", "s", 807],
  ["CSc1ccc(CNC(=O)Cn2c(=O)cc(-c3nc(C4CC4)no3)c3ccccc32)cc1", "s", 962],
  ["COc1ccc(NC(=O)Cn2c(C)cc(-c3nnc(C)o3)c2C)cc1", "s", 732],
  ["CCNC(=O)N1CCc2c([nH]c3ccccc23)C12C(=O)N(C)c1ccc(Br)cc12 (configuration not stated)", "s", 857],
  ["COc1ccc(Cl)cc1N(C)C(=O)C1CCCN(c2ncnc3c2nc2n3CCCCC2)C1 (configuration not stated)", "s", 871],
  ["COc1ccc(Cl)cc1NC(=O)Cn1ccc2ccc(-c3nnc(C)o3)cc21", "s", 898],
  ["CCc1cccc(C)c1NC(=O)CCC(=O)N1CCOc2ccccc21", "s", 854],
  ["CCOc1ccc2nc(NS(=O)(=O)c3ccc4c5c(cccc35)C(=O)N4)sc2c1", "s", 703],
  ["Cc1cc2c(cc1S(=O)(=O)N1CCCC1C(=O)N1CCc3ccccc3C1)OCC(=O)N2 (configuration not stated)", "s", 748],
  ["CS(=O)(=O)N1CCCc2cc(C(=O)Nc3cccc(Br)c3)ccc21", "s", 984]
]}

* * *

- assay explanation: gradient 5% acetonitrile 3 min, to 50% in 2 min, to 85% in 15 min, held 3 min, 100 µL/min
- run conditions: column: Zorbax Extend-C18 2.1 x 50 mm; eluents: water / acetonitrile, 0.1% formic acid

{"columns": ["compound", "reading unit", "RP-LC retention time"],
 "data": [
  ["O=C(Nc1ccc(Br)cc1)C1CCCN(c2ccnc(-c3ccc(F)cc3)n2)C1 (centres undefined)", "s", 775],
  ["CCSc1nnc(NC(=O)C2CCN(S(=O)(=O)c3ccc4c(c3)sc(=O)n4C)CC2)s1", "s", 862],
  ["O=C(Cn1c(=O)oc2ccccc21)NCC1CCN(C(=O)c2ccccc2F)CC1", "s", 671],
  ["O=C(O)c1ccc(Nc2c3ccccc3nc3ccccc23)cc1", "s", 629]
]}

* * *

- assay explanation: gradient 5% acetonitrile 3 min, to 50% in 2 min, to 85% in 15 min, held 3 min, 100 µL/min
- run conditions: column: Zorbax Extend-C18 2.1 x 50 mm; eluents: water / acetonitrile, 0.1% formic acid
quantity: RP-LC retention time (s)

{"columns": ["compound", "reading unit", "readout number"],
 "data": [
  ["CC(NC(=O)c1nnc(-c2ccc(S(=O)(=O)N(C)C)cc2)o1)c1ccccn1 (stereo not given)", "s", 683],
  ["Cc1c(-c2noc(C(=O)N3CCN(Cc4ccc5c(c4)OCO5)CC3)n2)oc2c(C)cccc12", "s", 837],
  ["O=C(Nc1ccccc1F)N1CCC(CCOc2ccccc2)CC1", "s", 1030],
  ["Cc1cc(F)ccc1NS(=O)(=O)c1cc2n(c1)CCCN(C)C2=O", "s", 687],
  ["CCC(=O)Nc1ccc(-n2cnc(C(=O)N3CCN(c4ccc(C)cc4C)CC3)c2)nc1", "s", 865],
  ["CCN(CCNC(=O)c1cc2c(s1)CN(C(C)C)C2)c1cccc(C)c1", "s", 573],
  ["COc1ccc(NC(=O)Cn2cnc(-c3ccc(F)cc3)cc2=O)c(OC)c1", "s", 754],
  ["O=c1n(Cc2c(F)cccc2Cl)nc2c(S(=O)(=O)N3CCCC3)cccn12", "s", 840],
  ["CCn1cc2c3c(cccc31)CN(C(=O)Nc1cc(C)ccc1OC)CC2", "s", 1080],
  ["COC(=O)c1cc(OC)c(OC)cc1NC(=O)CCc1ccc(C)o1", "s", 919],
  ["CSc1ccc(-c2noc(-c3nnn4c3COC(c3ccc(C)cc3C)C4)n2)cc1 (stereo not given)", "s", 1360],
  ["Cn1c(=O)c(NCCCN2CCCc3ccccc32)nc2ccncc21", "s", 665],
  ["CCCc1cc(NCc2ccccn2)n2ncc(-c3ccccc3)c2n1", "s", 894],
  ["O=C(NC1CCCCC1)C1COC2(CCN(C(=O)c3ccco3)CC2)N1C(=O)c1ccccc1 (stereo not given)", "s", 748],
  ["COCC(=O)N1CCCn2nc(-c3ccccc3)cc2C1", "s", 669],
  ["O=c1cc(N2CCOCC2)oc2c(-c3cccc4c3sc3ccccc34)cccc12", "s", 1190],
  ["Cc1ccc(NC(=O)c2cc(C(C)(C)C)n3nccc3n2)cc1", "s", 1320],
  ["CCCc1noc(-c2ccnc(-n3ncc(C(=O)Nc4ccc(C)c(F)c4)c3C)c2)n1", "s", 1170],
  ["Cc1sc(-c2nnc(C3CC3)o2)cc1NC(=O)Cc1ccc(F)cc1", "s", 956],
  ["Nc1cc(C2CCN(C(=O)c3cncc(Br)c3)CC2)no1", "s", 620]
]}
